System: S. aureus
Experiment: MIC assayed against S. aureus (Table 1)
Type: cell-based
Square brackets hold non-standard residues; d marks the D form. Peptide text beside a SMILES is read from it. * marks the point of attachment. Lauroyl = CCCCCCCCCCCC(=O)*; 12Ado = NCCCCCCCCCCCC(=O)O; Decanoyl = CCCCCCCCCC(=O)*; Octanoyl = CCCCCCCC(=O)*
READOUT NAME: MIC (minimal inhibitory concentration)

- COMPOUND: "CCCCCCCCCC(=O)N[C@@H](C)C(=O)N[C@@H](CC(C)C)C(=O)N[C@@H](Cc1c[nH]c2ccccc12)C(=O)N[C@@H](CCCCN)C(=O)N[C@H](C(=O)N[C@@H](CC(C)C)C(=O)N[C@@H](CC(C)C)C(=O)N[C@@H](CCCCN)C(=O)N[C@@H](CCCCN)C(=O)N[C@H](C(=O)N[C@@H](CC(C)C)C(=O)N[C@@H](CCCCN)C(=O)N[C@@H](C)C(N)=O)C(C)C)[C@@H](C)O [SEQ ID NO: 1, C10—, —CONH2] (Decanoyl-ALWKTLLKKVLKA-NH2)"
  MIC (minimal inhibitory concentration): "1.5 µM"
- COMPOUND: "CCCCCCCC(=O)N[C@@H](C)C(=O)N[C@@H](CC(C)C)C(=O)N[C@@H](Cc1c[nH]c2ccccc12)C(=O)N[C@@H](CCCCN)C(=O)N[C@H](C(=O)N[C@@H](CC(C)C)C(=O)N[C@@H](CC(C)C)C(=O)N[C@@H](CCCCN)C(=O)N[C@@H](CCCCN)C(=O)N[C@H](C(=O)N[C@@H](CC(C)C)C(=O)N[C@@H](CCCCN)C(=O)N[C@@H](C)C(N)=O)C(C)C)[C@@H](C)O [SEQ ID NO: 1, C8—, —CONH2] (Octanoyl-ALWKTLLKKVLKA-NH2)"
  MIC (minimal inhibitory concentration): "1.5 µM"
- COMPOUND: "CCCCCCCCCCCC(=O)N[C@@H](C)C(=O)N[C@@H](CC(C)C)C(=O)N[C@@H](Cc1c[nH]c2ccccc12)C(=O)N[C@@H](CCCCN)C(=O)N[C@H](C(=O)N[C@@H](CC(C)C)C(=O)N[C@@H](CC(C)C)C(=O)N[C@@H](CCCCN)C(=O)N[C@@H](CCCCN)C(=O)N[C@H](C(=O)N[C@@H](CC(C)C)C(=O)N[C@@H](CCCCN)C(=O)N[C@@H](C)C(N)=O)C(C)C)[C@@H](C)O [SEQ ID NO: 1, C12—, —CONH2] (Lauroyl-ALWKTLLKKVLKA-NH2)"
  MIC (minimal inhibitory concentration): "4.5 ± 1.5 µM"
- COMPOUND: "CC(C)C[C@H](NC(=O)[C@H](C)NC(=O)CCCCCCCCCCCN)C(=O)N[C@@H](Cc1c[nH]c2ccccc12)C(=O)N[C@@H](CCCCN)C(=O)N[C@H](C(=O)N[C@@H](CC(C)C)C(=O)N[C@@H](CC(C)C)C(=O)N[C@@H](CCCCN)C(=O)N[C@@H](CCCCN)C(=O)N[C@H](C(=O)N[C@@H](CC(C)C)C(=O)N[C@@H](CCCCN)C(=O)N[C@@H](C)C(N)=O)C(C)C)[C@@H](C)O [SEQ ID NO: 1, NC12—, —CONH2] (H-[12Ado]ALWKTLLKKVLKA-NH2)"
  MIC (minimal inhibitory concentration): "0.75 µM"

**Q:** Item CC(C)C[C@H](NC(=O)[C@H](C)N)C(=O)N[C@@H](Cc1c[nH]c2ccccc12)C(=O)N[C@@H](CCCCN)C(=O)N[C@H](C(=O)N[C@@H](CC(C)C)C(=O)N[C@@H](CC(C)C)C(=O)N[C@@H](CCCCN)C(=O)N[C@@H](CCCCN)C(=O)N[C@H](C(=O)N[C@@H](CC(C)C)C(=O)N[C@@H](CCCCN)C(=O)N[C@@H](C)C(N)=O)C(C)C)[C@@H](C)O [DD13] (H-ALWKTLLKKVLKA-NH2; N-terminus assumed) : provide MIC (minimal inhibitory concentration)
**A:** 9 ± 3 µM

**Q:** Item CC(C)C[C@H](NC(=O)[C@H](Cc1c[nH]c2ccccc12)NC(=O)[C@H](CCCCN)NC(=O)[C@@H](NC(=O)[C@H](CC(C)C)NC(=O)[C@H](CC(C)C)NC(=O)[C@H](CCCCN)NC(=O)[C@H](CCCCN)NC(=O)[C@@H](NC(=O)[C@H](CC(C)C)NC(=O)[C@H](CCCCN)NC(=O)[C@H](C)NC(=O)CCCCCCCCCCCN)C(C)C)[C@@H](C)O)C(=O)N[C@@H](C)C(N)=O : provide MIC (minimal inhibitory concentration)
**A:** 1.5 µM
